Data origin, for the record: paper PMC8924211

Target: T1, SNAP-GAL1R W260^6.48A (human, UniProt P47211 1-349, W260^6.48A, Lumi4-Tb on the SNAP tag)
T1 construct: also called W260A; source: HEK293, transfected, on cells; not shown: SNAP tag, N-terminal, kept
T1 sequence (looked up): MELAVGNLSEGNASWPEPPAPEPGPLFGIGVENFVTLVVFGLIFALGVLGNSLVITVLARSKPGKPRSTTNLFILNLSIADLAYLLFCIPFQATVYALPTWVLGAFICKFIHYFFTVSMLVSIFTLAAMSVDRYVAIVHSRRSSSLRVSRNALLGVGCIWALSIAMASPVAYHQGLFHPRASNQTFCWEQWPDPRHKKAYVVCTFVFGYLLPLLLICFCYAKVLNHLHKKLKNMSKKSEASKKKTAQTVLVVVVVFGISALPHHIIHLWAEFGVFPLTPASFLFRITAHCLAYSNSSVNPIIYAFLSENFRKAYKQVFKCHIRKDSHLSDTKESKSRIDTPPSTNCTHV
Test: AlphaScreen or HTRF; saturation binding: HEK293 cells transfected with SNAP-tagged receptor (WT or mutant) and labelled with SNAP-Lumi4-Tb, incubated with increasing concentrations of galanin-A2 in the presence or absence of 100 uM unlabeled galanin, 1 h at room temperature; HTRF ratio 665 nm/620 nm
Settings: one partner purified
property_measured: pKd
Numbers only, as −log10 of the molar value.

Summary for this binder, GWTLNSAGYLLGPHAVGNHRSFSDKNGLTSC (dye A2 on the additional C-terminal cysteine, numbers count on: the mature protein; additional cysteine at the C-terminal end of the peptide, carries the dye A2; source: synthetic peptide (synthesized by Vazyme, China)) : pKd is 7.29
